- Test system: K4 kissing-loop RNA reporter;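 also: bound reporter read as fluorescence of individual clusters on recovered sequencing chips by microscopy, with normalized cluster intensities fitted with a binding model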
- method_notes: apparent KD of K4 kissing-loop reporter; higher = weaker reporter binding
- assay_context: Eterna round: R107; input ligand: theophylline 20 uM
Catalogue of apparent KD of K4 kissing-loop reporter values
readout_kind: apparent KD of K4 kissing-loop reporter (nM)

{"sequence_text": "UAAGAGGACCACUGCAAGAGUCCUCGAAUACGAGGACCGGUACGGCCGCCACUCGAUAACUUGUAGUGAUGUUGCAAGUAAGAAU [BrourdMod 1 - Jieux - Same State Tryptophan A]", "system": "K4 kissing-loop RNA reporter", "readout_kind": "apparent KD of K4 kissing-loop reporter", "numeric_value": 79.2}
{"sequence_text": "AUUAAUUUCAGAGGAUAUCGUUAUUUUAUUUAAUUUAUUCAUUUAUGCAGUGAUGUUGCUAUUAUUCGAGAAGGCUGAUUUAUAA [JR_ExcFMNB_Sub006]", "system": "K4 kissing-loop RNA reporter", "readout_kind": "apparent KD of K4 kissing-loop reporter", "numeric_value": 70.4}
{"sequence_text": "CACGGAGUGAUGUUCCGACCGAGGAACGAUACCAGACAAGUAUACGUCCCUUGGCAGCGUUUCUUAUAUAGUCAACGUUACCGUA [Theo A Ex t3]", "system": "K4 kissing-loop RNA reporter", "readout_kind": "apparent KD of K4 kissing-loop reporter", "numeric_value": 537}
{"sequence_text": "AGAUUCGACACGGCCGCCACUUCCAGUGGCUGGUGUCAUGGUGCACGUGAGUGAUGUUUAUGUGGAAGGACCGGGUGUUGAGUCU [KL-XTryp-B2 #analogue]", "system": "K4 kissing-loop RNA reporter", "readout_kind": "apparent KD of K4 kissing-loop reporter", "numeric_value": 504}
{"sequence_text": "GGAGUUACCUGGGAUACCAGUCGGAGGCCCAGAGCUCGGAGUGAUGUUCUGGGAUGUUUCGGCCCUUGGCAGCUCUGGGUCUCCG [#2 Exclusion - Theophylline B Attempt #4 (HarryS)]", "system": "K4 kissing-loop RNA reporter", "readout_kind": "apparent KD of K4 kissing-loop reporter", "numeric_value": 648}
{"sequence_text": "GCCGUAGAUUGAAGGAGCGUUCUUACUGAGUACGGCAACCGGAAGUGAUGUUUCCAGGUGGAACAGGUAGGUCGCAAUCUACGGC", "system": "K4 kissing-loop RNA reporter", "readout_kind": "apparent KD of K4 kissing-loop reporter", "numeric_value": 88}

Reference source for all entries: the supplement of paper PMC9170038
